Taken from PubChem BioAssay.

Would you kindly list activity remaining for each of these molecules?
- Test system: Aerobactin synthetase IucA (Klebsiella pneumoniae hvKP1)
- assay-summary: Biochemical IucA enzyme inhibition primary screen of the Spectrum library (AID 1346200);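 also: 100% = wells without compound and 0% = wells lacking enzyme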
- run-conditions: malachite green pyrophosphate, A620, at 8 µM, stronger effect = lower value
Active and inactive are the calls of the source. No rule for the calls is given here. Positions of bridges follow the written chain, without caps; N, C: chain ends. Non-standard residues stand in square brackets, D forms with d. Residues, ends and D or L forms follow the SMILES beside them. *: point of attachment. Octanoyl(6-Me) = CCC(C)CCCCC(=O)*; Dab = NCC[CH](N)C(=O)O

Solved entries (count: 3):
molecule: C#C[C@]1(O)CCC2C3CCC4=CC(=O)CC[C@@H]4C3CC[C@@]21C (some centres not stated)
test-value: 108% (inactive)
--
molecule: CCC(C)CCCCC(=O)NC(CCN)C(=O)NC(C(=O)NC(CCN)C(=O)NC1CCNC(=O)C(C(C)O)NC(=O)C(CCN)NC(=O)C(CCN)NC(=O)C(CC(C)C)NC(=O)C(Cc2ccccc2)NC(=O)C(CCN)NC1=O)C(C)O (configuration not stated) ({Octanoyl(6-Me)}-[Dab]T[Dab][Dab][Dab]FL[Dab][Dab]T; lactam 4-C; configuration not given here)
test-value: 121% (inactive)
--
molecule: C[C@]12CCC3c4ccc(OC(=O)c5ccccc5)cc4CCC3C1CCC2=O (some centres not stated)
test-value: 116% (inactive)

Dear reader, for each entry below, please note its activity remaining.
1. Clc1ccc(COC(Cn2ccnc2)c2ccc(Cl)cc2Cl)cc1 (configuration not stated)
2. CC(=O)O[C@H]1CC[C@@]2(C)C(C[C@H](OC(C)=O)[C@@]3(C)C4=CC(=O)OC(c5ccoc5)[C@]4(C)CCC23)C1(C)C (some centres not stated)
3. CC(C)/C(O)=C1/C(=O)O[C@@H](c2ccoc2)[C@]2(C)C(O)[C@@H](O)[C@@]34OC5(C)OC67CC(C)(C(O)[C@]6(O)[C@@H](O)[C@]3(O5)C12)[C@H](CC(=O)O)[C@]74C (some centres not stated)

stdout:
["123% (inactive)", "119% (inactive)", "92.7% (inactive)"]

stdin: Please look up its activity remaining: Cc1ccc(N=CN(C)C=Nc2ccc(C)cc2C)c(C)c1
stdout: 119% (inactive)
